# test-system: human CD28 (human, UniProt P10747 19-220, On cells CD28 is a disulfide linked homodimer and a glycoprotein; one copy of the chain is given.)
# Sequence (P10747 19-220 limits assumed): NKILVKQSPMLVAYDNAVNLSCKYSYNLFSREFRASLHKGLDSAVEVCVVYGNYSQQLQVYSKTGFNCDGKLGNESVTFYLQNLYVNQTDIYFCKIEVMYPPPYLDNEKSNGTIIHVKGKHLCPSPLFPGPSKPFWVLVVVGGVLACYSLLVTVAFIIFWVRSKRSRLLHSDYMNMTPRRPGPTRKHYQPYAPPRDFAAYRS
# run-description: cell-based or functional assay
readout-type: Percent Divided (CFSE T cell division, with plate-coated anti-CD3 UCHT1) (%)
Write down the numeric answer in % and omit the unit.

Some solved entries appear below for comparison.
exemplary anti-CD28 antibody AB2 (antibody, V domains shown, Mouse hybridoma monoclonal antibody; also called antibody 2; clone 2) VH: QVQLQQPGSELMRPGASVKLSCKASGYTFTSYWMHWVKQRHGQGLEWIGNIYPGSGRTIYDEKFKSKATLTVDTSSSTAYMHLSSLTSEDSAVFYCTRSHYGSSFDAMDYWGQGTSVTVSS VL: DIQVNQSPSSLSASLGDTITITCHASQNIYVWLNWYQQKPGNIPKLLIYKASNLHTGVPSRFSGSGSGTGFTLTISSLQPEDIATYYCQQGQSYPWTFGGGTKLEIK | 44
exemplary anti-CD28 antibody AB8 (antibody, V domains shown, Mouse hybridoma monoclonal antibody; Conjugated to PE in the staining assays; also called antibody 8; clone 8) VH: EVKLVESGGGLVQPGGSLKLSCAASGFTFSSYTMSWVRQTPEKRLEWVAYISNGGGTTYYPDTVKGRFTISRDNAKNTLYLQMSSLKSEDTAVYYCARHRPYDYDVLDYWGQGTTLTVSS VL: DIVMTQSQKFMSTSVGDRVSITCKASQIVGTDVAWYQQKPGQSPKILIFSASNRYTGVPDRFTGSGSGTDFTLTISNMQSEDLADYFCHQYSRYPYTFGGGTKLEIK | 40

Continue with the binder presented below.
Q: Please report Percent Divided (CFSE T cell division, with plate-coated anti-CD3 UCHT1) for the following binder: exemplary anti-CD28 antibody AB7 (antibody, V domains shown, Mouse hybridoma monoclonal antibody; Conjugated to PE in the staining assays; also called antibody 7; clone 7) VH: KVQLQQSGAGLVKPGASVKLSCKASGYTFSDYIINWVKQRSGQGLEWIGWFYPGSGSINYNEKFKDKATLTADKSSSTVYMDLSRLTSEDSAVYFCARREDRGGYDAFDYWGQGTTLTVSS VL: DIQMTQSPASLSVSVGETVTITCRTSENIYSNLAWYQQKQGKSPQLLVYAATKLADGVPSRFSGSGSGTQYSLRINSLQPEDFGSYYCQHFWGTPWTFGGGTKLEIK
A: 48
